# Tested on: SN12C renal
# protocol: NCI-60 one-dose screen, 48 h (100 = growth as untreated, 0 = no growth, -100 = all killed)
# measurementParameters: 10 µM unless noted
The panel holds about 83,000 compounds, 20% with a hit somewhere; the sample as a whole holds those more often.
Measured growth of individual entries
readoutType: growth (%)

[
  {
    "molecule": "C=CCn1cc(-c2nc3ccccc3s2)c2cc(-c3ccc4c5c(cccc35)C(=O)N(CCN3CCNCC3)C4=O)ccc21",
    "assayResult": 76.3
  },
  {
    "molecule": "O=C(NNC(=O)N1c2ccccc2C=Cc2ccccc21)c1ccc2ccccc2c1",
    "assayResult": 90.5
  },
  {
    "molecule": "COc1cc(C2CC(c3ccc4c(c3)OCO4)=NN2C(C)=O)cc(OC)c1OC (stereo not given)",
    "assayResult": 46.3
  },
  {
    "molecule": "COc1ccc(/C=C2\\Oc3cc(OCCCN4CCCC4)ccc3C2=O)cc1",
    "assayResult": 90.4
  },
  {
    "molecule": "O=C(Nc1ccncc1)C(=O)c1cn(S(=O)(=O)c2ccc(Cl)cc2)c2ccccc12",
    "assayResult": 34
  },
  {
    "molecule": "N#C/C(=C1C=C/C(=N/O)C(Cl)=C/1)c1ccc(Cl)cc1",
    "assayResult": 66.6
  },
  {
    "molecule": "COc1ccc(C2=Nn3c(nnc3-n3nc(C)cc3C)SC2)cc1",
    "assayResult": 33.2
  },
  {
    "molecule": "O=C(/C=C\\c1cccc([N+](=O)[O-])c1)/C=C/c1cccc([N+](=O)[O-])c1",
    "assayResult": 98.1
  },
  {
    "molecule": "CCN(CC)c1ccc(CNc2ccnc3ccccc23)cc1",
    "assayResult": 64
  },
  {
    "molecule": "CN(CCCCN(C[C@H]1Cc2ncccc2CN1)[C@H]1CCCc2cccnc21)C1CCC(F)(F)CC1",
    "assayResult": 86.1
  }
]

Data provenance is PubChem BioAssay (NCI).
